Biological target: P2rx2 (rat)
Experiment: reporter assay of Huesken 2005; also: test concentration or dose not given here
Conditions: siRNA
Oligonucleotides are written 5' to 3', each unit as a sugar letter and its base; * is a phosphorothioate linkage, no mark a phosphodiester; rarer units and linkages stand in square brackets, end groups in braces. Plain capitals give the bases only. d = 2'-deoxy (DNA); r = 2'-OH (RNA)
Listed here: items and their measured normalised inhibition (eCFP-eYFP dual reporter).
Returns: string containing the number followed by the unit.

{"Substance": "sense rCrArUrCrUrCrUrGrCrUrCrUrGrArCrUrGrArGdTdT / antisense rCrUrCrArGrUrCrArGrArGrCrArGrArGrArUrGdGdA", "Measurement": "42.7%"}
{"Substance": "sense rUrGrCrCrCrUrUrGrUrCrUrUrGrGrGrCrCrArGdTdT / antisense rCrUrGrGrCrCrCrArArGrArCrArArGrGrGrCrAdAdG", "Measurement": "37%"}
{"Substance": "sense rGrGrUrGrCrGrGrArArUrCrGrGrCrGrCrCrUrGdTdT / antisense rCrArGrGrCrGrCrCrGrArUrUrCrCrGrCrArCrCdAdC", "Measurement": "69.3%"}
{"Substance": "sense rGrCrArUrCrArUrCrArCrCrArGrGrArUrCrGrAdTdT / antisense rUrCrGrArUrCrCrUrGrGrUrGrArUrGrArUrGrCdTdG", "Measurement": "78.5%"}
{"Substance": "sense rCrCrGrGrArGrArGrCrUrCrCrArUrCrArUrCrAdTdT / antisense rUrGrArUrGrArUrGrGrArGrCrUrCrUrCrCrGrGdTdC", "Measurement": "54.2%"}

Now look at this one.
I'm curious: which normalised inhibition (eCFP-eYFP dual reporter) was measured for sense rGrUrGrUrCrArUrUrGrGrArGrUrCrArUrCrArUdTdT / antisense rArUrGrArUrGrArCrUrCrCrArArUrGrArCrArCdCdG tested on P2rx2 (rat)?
59%

* * *

Target: UBE2B
Test: reporter assay of Huesken 2005
Conditions: siRNA
Oligonucleotides are written 5' to 3', each unit as a sugar letter and its base; * is a phosphorothioate linkage, no mark a phosphodiester; rarer units and linkages stand in square brackets, end groups in braces. Plain capitals give the bases only. d = 2'-deoxy (DNA); r = 2'-OH (RNA)
Quantity name: normalised inhibition (eCFP-eYFP dual reporter) (%)
Note: unit % is implicit; provide only the numeric part.

Some solved cases for reference:
{"Substance": "sense rArGrCrCrArArUrArGrCrCrArGrGrCrArGrCrAdTdT / antisense rUrGrCrUrGrCrCrUrGrGrCrUrArUrUrGrGrCrUdGdG", "Tested on": "UBE2B", "Measurement": 75.9}
{"Substance": "sense rArArArCrUrArGrUrArArUrArGrArArUrUrUrUdTdT / antisense rArArArArUrUrCrUrArUrUrArCrUrArGrUrUrUdAdA", "Tested on": "UBE2B", "Measurement": 47.5}

I'm curious: which normalised inhibition (eCFP-eYFP dual reporter) was measured for sense rArGrUrCrCrArGrCrCrArArUrArGrCrCrArGrGdTdT / antisense rCrCrUrGrGrCrUrArUrUrGrGrCrUrGrGrArCrUdGdT tested on UBE2B?
68.7

* * *

Listed here: items and their measured normalised inhibition (eCFP-eYFP dual reporter).
Molecular target: TMEM63B
Assay: reporter assay of Huesken 2005
Settings: siRNA
Oligonucleotides are given in HELM: sugar(base)linkage, 5' to 3'; d 2'-deoxyribose, r ribose, m 2'-O-methylribose, p phosphate. ss, as = sense and antisense strand
Note: unit % is implicit; provide only the numeric part.

{"Substance": "RNA1{r(C)p.r(U)p.r(U)p.r(G)p.r(A)p.r(A)p.r(A)p.r(U)p.r(C)p.r(A)p.r(G)p.r(G)p.r(G)p.r(A)p.r(A)p.r(C)p.r(A)p.r(A)p.r(C)p.d(T)p.d(T)}|RNA2{r(G)p.r(U)p.r(U)p.r(G)p.r(U)p.r(U)p.r(C)p.r(C)p.r(C)p.r(U)p.r(G)p.r(A)p.r(U)p.r(U)p.r(U)p.r(C)p.r(A)p.r(A)p.r(G)p.d(T)p.d(T)}$$$RNA1{StrandType:ss}|RNA2{StrandType:as}$", "Tested on": "TMEM63B", "Measurement": 71.1}
{"Substance": "RNA1{r(C)p.r(C)p.r(U)p.r(G)p.r(G)p.r(U)p.r(C)p.r(A)p.r(U)p.r(C)p.r(A)p.r(A)p.r(U)p.r(G)p.r(U)p.r(C)p.r(G)p.r(U)p.r(C)p.d(T)p.d(T)}|RNA2{r(G)p.r(A)p.r(C)p.r(G)p.r(A)p.r(C)p.r(A)p.r(U)p.r(U)p.r(G)p.r(A)p.r(U)p.r(G)p.r(A)p.r(C)p.r(C)p.r(A)p.r(G)p.r(G)p.d(C)p.d(A)}$$$RNA1{StrandType:ss}|RNA2{StrandType:as}$", "Tested on": "TMEM63B", "Measurement": 60.4}

Record request: normalised inhibition (eCFP-eYFP dual reporter) value, item `RNA1{r(C)p.r(U)p.r(U)p.r(C)p.r(U)p.r(U)p.r(U)p.r(U)p.r(C)p.r(C)p.r(A)p.r(C)p.r(C)p.r(A)p.r(U)p.r(G)p.r(C)p.r(G)p.r(C)p.d(T)p.d(T)}|RNA2{r(G)p.r(C)p.r(G)p.r(C)p.r(A)p.r(U)p.r(G)p.r(G)p.r(U)p.r(G)p.r(G)p.r(A)p.r(A)p.r(A)p.r(A)p.r(G)p.r(A)p.r(A)p.r(G)p.d(A)p.d(G)}$$$RNA1{StrandType:ss}|RNA2{StrandType:as}$`
39.7

Record request: normalised inhibition (eCFP-eYFP dual reporter) value, item `RNA1{r(U)p.r(C)p.r(G)p.r(U)p.r(C)p.r(C)p.r(U)p.r(C)p.r(U)p.r(U)p.r(C)p.r(A)p.r(U)p.r(C)p.r(C)p.r(U)p.r(C)p.r(C)p.r(U)p.d(T)p.d(T)}|RNA2{r(A)p.r(G)p.r(G)p.r(A)p.r(G)p.r(G)p.r(A)p.r(U)p.r(G)p.r(A)p.r(A)p.r(G)p.r(A)p.r(G)p.r(G)p.r(A)p.r(C)p.r(G)p.r(A)p.d(C)p.d(A)}$$$RNA1{StrandType:ss}|RNA2{StrandType:as}$`
55.8

Record request: normalised inhibition (eCFP-eYFP dual reporter) value, item `RNA1{r(C)p.r(G)p.r(C)p.r(C)p.r(C)p.r(U)p.r(C)p.r(A)p.r(C)p.r(G)p.r(G)p.r(A)p.r(C)p.r(A)p.r(C)p.r(A)p.r(G)p.r(A)p.r(C)p.d(T)p.d(T)}|RNA2{r(G)p.r(U)p.r(C)p.r(U)p.r(G)p.r(U)p.r(G)p.r(U)p.r(C)p.r(C)p.r(G)p.r(U)p.r(G)p.r(A)p.r(G)p.r(G)p.r(G)p.r(C)p.r(G)p.d(T)p.d(C)}$$$RNA1{StrandType:ss}|RNA2{StrandType:as}$`
59.1

Record request: normalised inhibition (eCFP-eYFP dual reporter) value, item `RNA1{r(C)p.r(A)p.r(U)p.r(C)p.r(C)p.r(C)p.r(A)p.r(A)p.r(G)p.r(A)p.r(U)p.r(G)p.r(A)p.r(G)p.r(G)p.r(A)p.r(G)p.r(U)p.r(U)p.d(T)p.d(T)}|RNA2{r(A)p.r(A)p.r(C)p.r(U)p.r(C)p.r(C)p.r(U)p.r(C)p.r(A)p.r(U)p.r(C)p.r(U)p.r(U)p.r(G)p.r(G)p.r(G)p.r(A)p.r(U)p.r(G)p.d(A)p.d(G)}$$$RNA1{StrandType:ss}|RNA2{StrandType:as}$`
53

Record request: normalised inhibition (eCFP-eYFP dual reporter) value, item `RNA1{r(C)p.r(A)p.r(U)p.r(C)p.r(U)p.r(G)p.r(G)p.r(U)p.r(G)p.r(G)p.r(C)p.r(U)p.r(G)p.r(C)p.r(G)p.r(C)p.r(U)p.r(G)p.r(C)p.d(T)p.d(T)}|RNA2{r(G)p.r(C)p.r(A)p.r(G)p.r(C)p.r(G)p.r(C)p.r(A)p.r(G)p.r(C)p.r(C)p.r(A)p.r(C)p.r(C)p.r(A)p.r(G)p.r(A)p.r(U)p.r(G)p.d(A)p.d(A)}$$$RNA1{StrandType:ss}|RNA2{StrandType:as}$`
29.3

Record request: normalised inhibition (eCFP-eYFP dual reporter) value, item `RNA1{r(U)p.r(G)p.r(C)p.r(A)p.r(C)p.r(A)p.r(A)p.r(G)p.r(U)p.r(G)p.r(C)p.r(U)p.r(A)p.r(C)p.r(A)p.r(C)p.r(U)p.r(U)p.r(U)p.d(T)p.d(T)}|RNA2{r(A)p.r(A)p.r(A)p.r(G)p.r(U)p.r(G)p.r(U)p.r(A)p.r(G)p.r(C)p.r(A)p.r(C)p.r(U)p.r(U)p.r(G)p.r(U)p.r(G)p.r(C)p.r(A)p.d(T)p.d(G)}$$$RNA1{StrandType:ss}|RNA2{StrandType:as}$`
99.1

Record request: normalised inhibition (eCFP-eYFP dual reporter) value, item `RNA1{r(U)p.r(C)p.r(A)p.r(U)p.r(C)p.r(A)p.r(U)p.r(C)p.r(A)p.r(C)p.r(C)p.r(A)p.r(C)p.r(C)p.r(A)p.r(U)p.r(G)p.r(G)p.r(A)p.d(T)p.d(T)}|RNA2{r(U)p.r(C)p.r(C)p.r(A)p.r(U)p.r(G)p.r(G)p.r(U)p.r(G)p.r(G)p.r(U)p.r(G)p.r(A)p.r(U)p.r(G)p.r(A)p.r(U)p.r(G)p.r(A)p.d(T)p.d(G)}$$$RNA1{StrandType:ss}|RNA2{StrandType:as}$`
79.2

Record request: normalised inhibition (eCFP-eYFP dual reporter) value, item `RNA1{r(G)p.r(U)p.r(C)p.r(C)p.r(C)p.r(C)p.r(A)p.r(A)p.r(A)p.r(U)p.r(C)p.r(U)p.r(G)p.r(C)p.r(G)p.r(A)p.r(A)p.r(A)p.r(U)p.d(T)p.d(T)}|RNA2{r(A)p.r(U)p.r(U)p.r(U)p.r(C)p.r(G)p.r(C)p.r(A)p.r(G)p.r(A)p.r(U)p.r(U)p.r(U)p.r(G)p.r(G)p.r(G)p.r(G)p.r(A)p.r(C)p.d(A)p.d(G)}$$$RNA1{StrandType:ss}|RNA2{StrandType:as}$`
82
